- TARGET ENTITY: Recombinant full-length human IDO1 (Homo sapiens (Human), UniProt P14902)
- Sequence (P14902 whole entry): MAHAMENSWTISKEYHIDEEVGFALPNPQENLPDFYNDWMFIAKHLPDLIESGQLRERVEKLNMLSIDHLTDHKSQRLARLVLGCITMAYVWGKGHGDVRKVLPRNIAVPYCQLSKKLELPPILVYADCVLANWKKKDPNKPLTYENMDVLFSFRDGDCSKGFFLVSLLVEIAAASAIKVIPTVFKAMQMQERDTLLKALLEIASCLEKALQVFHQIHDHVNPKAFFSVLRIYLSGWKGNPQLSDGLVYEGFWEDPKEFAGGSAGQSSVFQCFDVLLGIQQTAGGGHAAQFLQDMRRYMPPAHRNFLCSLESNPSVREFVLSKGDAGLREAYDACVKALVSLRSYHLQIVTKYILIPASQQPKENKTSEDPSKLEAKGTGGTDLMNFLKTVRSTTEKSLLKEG
- PROTOCOL TEXT: IDO1 enzymatic assay (IDO inhibitory activity)
- Format: biochemical
- CONDITION PARAMETERS: 2 nM enzyme, 5 μM L-tryptophan, pH6.5, 30 min pre-incubation, NFK quantified by LCMS; mean values if measured multiple times; read-out: hIDO activity (IC50 in nM)
- Protocol: 1) Testing Compounds for IDO Inhibitory Activity in an IDO1 Enzymatic Assay: Recombinant full-length human IDO1 with a N-terminal hexahistidine tag expressed in E. coli and purified to homogeneity is incubated at a final concentration of 2 nM in assay buffer consisting of 37.5 mM phosphate buffer at pH6.5 supplemented with 10 mM sodium L-ascorbate, 0.45 μM methylene blue, 50 U/ml catalase, 0.01% BSA, and 0.01% Tween 20 (protocol modified from Seegers et al, JBS 2014). […]
In this section, each of the molecules is paired with its reported IC50.
VALUE KIND: IC50 (nM)

| MOLECULE | VALUE MEASURED |
| --- | --- |
| CC1CCCC(CC(O)c2c(C(F)(F)F)sc3cncn23)C1 (centres unmarked) | 205 |
| OC(CC1CCCCC1)c1c(Cl)sc2cncn12 (racemic) | 159 |
| OC(c1cccc(C(F)(F)F)c1)c1c(C2CC2)sc2cncn12 (racemic) | 587 |
| OC(CC1CCC(c2ccccc2)CC1)c1c(C2CC2)sc2cncn12 (racemic) | 353 |
| CC(C)(C)c1sc2cncn2c1C(O)CC1CCCCC1 (racemic) | 895 |

###

- TARGET ENTITY: Recombinant human TDO comprising amino acids 19-407 (Homo sapiens (Human), UniProt P48775)
- Sequence (P48775 19-406 limits assumed): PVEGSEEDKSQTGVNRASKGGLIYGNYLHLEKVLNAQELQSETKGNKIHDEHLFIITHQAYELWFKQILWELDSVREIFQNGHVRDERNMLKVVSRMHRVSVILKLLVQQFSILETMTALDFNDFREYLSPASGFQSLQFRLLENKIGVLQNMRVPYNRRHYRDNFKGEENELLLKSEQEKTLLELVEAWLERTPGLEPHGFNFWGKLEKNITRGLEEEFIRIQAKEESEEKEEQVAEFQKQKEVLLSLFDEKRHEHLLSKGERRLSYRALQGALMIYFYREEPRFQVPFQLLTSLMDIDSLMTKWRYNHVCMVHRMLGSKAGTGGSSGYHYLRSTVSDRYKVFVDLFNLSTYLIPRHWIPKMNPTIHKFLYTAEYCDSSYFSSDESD
- PROTOCOL TEXT: TDO2 enzymatic assay (TDO inhibitory activity)
- Assay type: biochemical
- CONDITION PARAMETERS: 15 nM enzyme, 200 μM L-tryptophan, pH7, 30 min pre-incubation, NFK quantified by LCMS; mean values if measured multiple times; read-out: hTDO activity (IC50 in nM)
In this section, each of the compounds is paired with its reported log10(IC50).
VALUE KIND: log10(IC50) (log10 of the value in nM)

| COMPOUND | TARGET ENTITY | VALUE MEASURED |
| --- | --- | --- |
| CC(C1CCCCC1)C(O)c1c(C2CC2)sc2cncn12 (centres unmarked) | Recombinant human TDO comprising amino acids 19-407 (Homo sapiens (Human), UniProt P48775) | 2.91 |
| Cc1sc2cncn2c1[C@@H](O)C1CCCCC1 | Recombinant human TDO comprising amino acids 19-407 (Homo sapiens (Human), UniProt P48775) | 1.78 |
| Cc1cscc1-c1sc2cncn2c1C(O)C1CCCCC1 (racemic) | Recombinant human TDO comprising amino acids 19-407 (Homo sapiens (Human), UniProt P48775) | 2.62 |
| Cc1sc2cncn2c1C(O)CC1CCC(C)(C)CC1 (racemic) | Recombinant human TDO comprising amino acids 19-407 (Homo sapiens (Human), UniProt P48775) | 3.29 |
| CC1(C)CC(C(O)c2c(C(F)(F)F)sc3cncn23)C1 (racemic) | Recombinant human TDO comprising amino acids 19-407 (Homo sapiens (Human), UniProt P48775) | 2.96 |
